Numbers sourced from patent US20110052582A1.

Biological target: T1, Soluble CDCP1 extracellular domain (CDCP1-ECD) (SEQ ID NO:30) fused to Streptavidin Binding Protein (SBP) (human, UniProt Q9H5V8 30-663)
T1 construct: also called SBP-CDCP1-ECD
T1 sequence: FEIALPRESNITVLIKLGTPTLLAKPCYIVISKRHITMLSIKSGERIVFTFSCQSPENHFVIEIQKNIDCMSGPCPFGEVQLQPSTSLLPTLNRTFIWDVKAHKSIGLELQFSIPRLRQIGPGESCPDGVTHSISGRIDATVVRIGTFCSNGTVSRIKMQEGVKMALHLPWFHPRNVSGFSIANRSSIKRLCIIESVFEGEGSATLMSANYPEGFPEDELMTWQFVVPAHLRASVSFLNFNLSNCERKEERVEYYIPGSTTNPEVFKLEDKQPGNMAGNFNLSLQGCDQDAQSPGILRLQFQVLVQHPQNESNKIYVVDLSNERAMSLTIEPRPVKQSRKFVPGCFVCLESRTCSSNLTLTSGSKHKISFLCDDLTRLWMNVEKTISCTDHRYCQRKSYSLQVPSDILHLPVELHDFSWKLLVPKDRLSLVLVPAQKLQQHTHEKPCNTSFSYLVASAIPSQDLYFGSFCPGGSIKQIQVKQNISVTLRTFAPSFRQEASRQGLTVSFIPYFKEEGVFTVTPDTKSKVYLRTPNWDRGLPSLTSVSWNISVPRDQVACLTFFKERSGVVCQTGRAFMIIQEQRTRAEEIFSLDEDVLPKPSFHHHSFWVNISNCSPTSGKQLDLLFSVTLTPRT
Assay: ELISA on captured SBP-CDCP1-ECD, ratio relative to chimeric CUB4 (chHC4)
property: relative binding ratio
Could you keep your reply to the number by itself?

hHC4-H / hLC4-J (antibody, V domains shown, also called Humanized CUB4 Antibody No. 36) VH: EVQLVESGGGLVQPGGSLRLSCAASGFTFNSYGMSWVRQAPGKGLEWVATISSGGSYKYYVDSVKGRFTISRDNAKNSLYLQMNSLRAEDTAVYYCARHPDYDGVWFAYWGQGTLVTVSS VL: EIVMTQSPATLSLSPGERATMSCRASSSVFYLHWYQQKPGQAPRLWIYDTSKLASGIPARFSGSGSGTDFTLTISSLQPEDFAVYYCQQWNSNPPTFGGGTKVEIK    0.52
hHC4-I / hLC4-L (antibody, V domains shown) VH: EVQLLESGGGLVQPGGSLRLSCAASGFTFNSYAMSWVRQAPGKGLEWVSAISSGGSYTYYADSVKGRFTISRDNSKNTLYLQMNSLRAEDTAVYYCAKHPDYDGVWFAYWGQGTLVTVSS VL: EIVLTQSPATLSLSPGERATMSCRASSSVFYLHWYQQKPGQAPRLWIYDTSKLASGIPARFSGSGSGTDFTLTISSLEPEDFAVYYCQQWNSNPPTFGGGTKVEIK    0.11
hHC4-07 / hLC4-b (antibody, V domains shown) VH: EVQLLESGGGLVQPGGSLRLSCAASGFTFNSYAMSWVRQAPGKGLEWVSTISSGGSYTYYPDSVKGRFTISRDNSKNTLYLQMNSLRAEDTAVYYCAKHPDYDGVWFAYWGQGTLVTVSS VL: EIVLTQSPATLSLSPGERATLSCSVSSSVFYVHWYQQKPGQAPRLLIYDTSKLASGIPARFSGSGSGTDYTLTISSLEPEDFAVYYCQQWNSNPPTFGGGTKVEIK    0.07
hHC4-K2 / hLC4-e (antibody, V domains shown) VH: EVQLVESGGGLVKPGGSLRLSCAASGFTFNSYGMSWVRQAPGKGLEWVSSISSGGSYTYYADSVKGRFTISRDNAKNSLYLQMNSLRAEDTAVYYCARHPDYDGVWFAYWGQGTLVTVSS VL: DIQMTQSPSSLSASVGDRVTITCSVSSSVFYVHWYQQKPGKAPKLLIYDTSKLASGVPSRFSGSGSGTDFTFTISSLQPEDIATYYCQQWNSNPPTFGGGTKVEIK    0.07

In the following, a different binder is considered.
Memo: hHC4-c / hLC4-d (antibody, V domains shown) VH: EVQLVESGGGLVQPGGSLRLSCAASGFTFNSYGMSWVRQAPGKGLEWVATISSGGSYTYYPDSVKGRFTISRDNAKNSLYLQMNSLRAEDTAVYYCARHPDYDGVWFAYWGQGTLVTVSS VL: EIVMTQSPATLSVSPGERATLSCSVSSSVFYVHWYQQKPGQAPRLLIYDTSKLASGIPARFSGSGSGTEYTLTISSLQSEDFAVYYCQQWNSNPPTFGGGTKVEIK , reported relative binding ratio: 0.36
